Can you tell me Growth Rate for the items I'm about to list?
- Test system: HEK-293T
- method: Incucyte cell viability with HEK293T; note: filed as whole numbers so only -1 and 0 and 1 occur
- Type: toxicity, cell-based
- test_context: human, 0 h, 10 µM, compound concentration 10 uM, replicate number 1, timepoint 0 hours
Answers are plain numbers.

Guide cases for Growth Rate, answers given:
• CCc1cc(Nc2nccc(-c3c(-c4ccc(OC)c(C(=O)Nc5c(F)cccc5F)c4)nc4ccccn34)n2)c(OC)cc1N1CCC(N2CCN(S(C)(=O)=O)CC2)CC1 = 1
• CCOC(=O)CCNc1cc(N2CCc3ccccc3CC2)nc(-c2ccccn2)n1 = 1
• CC(C)C[C@H](NC(=O)N1CCCCCC1)C(=O)N[C@H](Cc1cn(C)c2ccccc12)C(=O)N[C@H](Cc1ccccn1)C(=O)O = 0
• Cc1ccc(NC(=O)Nc2cc(C(F)(F)F)ccc2F)cc1Nc1ccc2c(c1)NC(=O)/C2=C\c1ccc[nH]1 = 0
• Cc1cc2c(cc1-c1cc(/C=C/C(=O)O)ccc1O)C(C)(C)CCC2(C)C = 0

Required: Growth Rate, one value per compound below.
1. Cc1cn2cc(CC(=O)N3CCC4(CC3)CN(Cc3ccc(-n5nccn5)cc3Cl)C4)nc2s1
2. C[C@H](NC(=O)Nc1cc2[nH]ncc2c(CO)n1)c1ccccn1 [ERKi-NC]
3. CCN(Cc1ccc(Cl)cc1)c1ncc(C(=O)NCCCN2CCCC2=O)c(NC2CCCC2)n1

A:
[1, 0, 0]

* * *

- System: HEK-293T
- method: Multiplex assay against HEK293T
- Type: toxicity, cell-based
- test_context: human, 12 h, 1 µM, compound concentration 1 uM, replicate 1
experimental_endpoint: Population Healthy Nuclei (%)
Respond with a number, then the unit of measure.

- Cc1ccc(NC(=O)Nc2cc(C(F)(F)F)ccc2F)cc1Nc1ccc2c(c1)NC(=O)/C2=C\c1ccc[nH]1: 28%
- CCCCCNC(=N)N/N=C/c1c[nH]c2ccc(OC)cc12.O=C(O)/C=C\C(=O)O [TEGASEROD MALEATE]: 42%
- Cc1c(P(=S)(c2ccccc2)c2ccccc2)n2ccccc2[n+]1C/C=C/c1ccccc1.[Br-]: 24%
- CCOC(=O)CCNc1cc(N2CCc3ccccc3CC2)nc(-c2ccccn2)n1: 66%
- CC(Cc1ccc(O)c(O)c1)C(C)Cc1ccc(O)c(O)c1 (centres undefined) [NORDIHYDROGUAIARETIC ACID]: 34%

List reported Population Healthy Nuclei (%) for each of these compounds:
1. N#CCNC(=O)c1ccc(-c2ccnc(Nc3ccc(N4CCOCC4)cc3)n2)cc1
2. CC[C@H](Nc1ncnc2[nH]cnc12)c1nc2cccc(F)c2c(=O)n1-c1ccccc1
3. CN1C(=O)[C@@H](NC(=O)c2cc3ccccc3[nH]2)N=C(c2ccccc2)c2ccccc21 [DEVAZEPIDE]
4. Cc1c(Nc2ccc(S(=O)(=O)N3CCN(C)CC3)cc2F)nc2ccc(Nc3cnn(C4CC4)c3)cn2c1=O

A:
1. 53%
2. 46%
3. 38%
4. 52%

* * *

- Test system: HEK-293T
- method: Multiplex assay against HEK293T
- Assay type: toxicity, cell-based
- test_context: human, 48 h, 10 µM, compound concentration 10 uM, replicate 1
Can you tell me Population Healthy Nuclei (%) for the items I'm about to list?
Numbers only, in %.

Below: 2 compounds and their reported Population Healthy Nuclei (%).
• Cc1ccc(S(=O)(=O)NC2c3ccccc3Oc3ccccc32)cc1 = 66
• CCCc1cc(C)[nH]c(=O)c1CNC(=O)c1cc(-c2ccc(N3CCN(C(C)C)CC3)nc2)cc2c1cnn2C(C)C = 10

Provide each entry's Population Healthy Nuclei (%) from the list below.
1. Cl.NC[C@@H]1O[C@H](C23CC4CC(CC(C4)C2)C3)Cc2c1ccc(O)c2O
2. CC(Cc1ccc(O)c(O)c1)C(C)Cc1ccc(O)c(O)c1 (stereo not given) [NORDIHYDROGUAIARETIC ACID]
3. CCCCN(CC)c1nc(C)nc2c1c(C)cn2-c1c(C)cc(C)cc1C.Cl

A:
1: 10; 2: 50; 3: 67

* * *

Answer each item with its documented Population Tubulin-Different-Phenotype (%).
- System: U2OS
- method: Multiplex assay against U2OS
- Format: toxicity, cell-based
- test_context: human, 24 h, 1 µM, compound concentration 1 uM, replicate 1
Numbers only, in %.

• N#Cc1cccc(C(=O)Nc2cc(-c3ccccc3)nn2-c2ccccc2)c1 = 3
• CCOc1ccn(-c2ccc(F)cc2)c(=O)c1C(=O)Nc1ccc(Oc2ccnc(N)c2Cl)c(F)c1 = 16
• Cc1c(Nc2ccc(S(=O)(=O)N3CCN(C)CC3)cc2F)nc2ccc(Nc3cnn(C4CC4)c3)cn2c1=O = 33

Required: Population Tubulin-Different-Phenotype (%), one value per compound below.
1. CC(C)C[C@H](NC(=O)[C@H](Cc1ccccc1)NC(=O)CNC(=O)CNC(=O)[C@@H](N)Cc1ccc(O)cc1)C(=O)O
2. CC(Cc1ccc(O)c(O)c1)C(C)Cc1ccc(O)c(O)c1 (stereo not drawn) [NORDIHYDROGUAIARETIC ACID]
3. Cl.Cn1c2c(c3ccc(Cl)c(Cl)c31)C(C#N)C1(CCNCC1)NC2=O (stereo not drawn)

A:
1. 9
2. 11
3. 26

# return Population Tubulin-Different-Phenotype (%) for each item in the list
1. NC(=O)c1ccc2nc(-c3ccc(C4(N)CCC4)cc3)c(-c3ccccc3)n2n1
2. CC[C@@H]1C(=O)N(C)c2cnc(Nc3ccc(C(=O)NC4CCN(C)CC4)cc3OC)nc2N1C1CCCC1

A:
[23, 17]

* * *

- Tested on: Fibroblast
- method: Incucyte cell viability with human fibroblast; note: filed as whole numbers so only -1 and 0 and 1 occur
- Type: toxicity, cell-based
- test_context: 12 h, 10 µM, compound concentration 10 uM, replicate number 1, timepoint 12 hours
For each record, write down the corresponding Growth Rate.
One number for each entry.

* O=C(O)[C@H]1[C@H](Cn2nnc3ccccc3c2=O)CC[C@@H]1C(=O)c1ccc(OCCC2CCOCC2)cc1 | 1

For every listed record, write down its Growth Rate.
1. CCOC(=O)c1ccc(C#Cc2ccc3c(c2)C(C)(C)CCS3)nc1
2. CC[C@@H]1CN(C(=O)NCC(F)(F)F)C[C@@H]1c1cnc2cnc3[nH]ccc3n12
3. COc1ccc(Br)cc1S(=O)(=O)NC(=O)/C=C/c1ccccc1Cc1ccc2ccccc2c1
4. CC[C@H](Nc1ncnc2[nH]cnc12)c1nc2cccc(F)c2c(=O)n1-c1ccccc1
5. C[C@@H](Oc1cc(-n2cnc3ccc(CN4CCN(C)CC4)cc32)sc1C(N)=O)c1ccccc1C(F)(F)F
6. N#Cc1cccc(C(=O)Nc2cc(-c3ccccc3)nn2-c2ccccc2)c1

A:
[1, 1, 1, 0, 0, 0]

List reported Growth Rate for each of these compounds:
1. COc1cccc(CNC(=O)c2nc3scc(COCc4ccc(C(=O)O)cc4)c3c(=O)[nH]2)c1 [T-26c]
2. Cc1c(C2=CCN(C(=O)N(C)C(C)C)CC2)nnn1-c1cccnc1F

A:
1. 1
2. 0

* * *

- Tested on: U2OS
- method: Multiplex assay against U2OS
- Type: toxicity, cell-based
- test_context: human, 48 h, 10 µM, compound concentration 10 uM, replicate 1
experimental_endpoint: Population Hoechst High Intensity Objects (%)
Give your result as the value with the unit written after it.

• Cc1c(Nc2ccc(S(=O)(=O)N3CCN(C)CC3)cc2F)nc2ccc(-c3cnn(C4CC4)c3)cn2c1=O = 39%
• CN1CCN(Cc2ccc(-c3cnc4[nH]cc(-c5ccc6[nH]ccc6c5)c4c3)cc2)CC1 = 14%
• C[C@@H](Oc1cc(-n2cnc3ccc(CN4CCN(C)CC4)cc32)sc1C(N)=O)c1ccccc1C(F)(F)F = 11%
• CCCc1cc(C)[nH]c(=O)c1CNC(=O)c1cc(-c2ccc(N3CCN(C(C)C)CC3)nc2)cc2c1cnn2C(C)C = 14%
• CC(C)c1cc(Nc2nc(N3CCC[C@H](N)C3)ncc2C(N)=O)cc(C(C)C)n1 = 15%
• C=CC(=O)Nc1cc(-n2c(=O)ccc3cnc4ccc(-c5ccc(NS(C)(=O)=O)cc5)cc4c32)ccc1C = 4%
• Cl.NC[C@@H]1O[C@H](C23CC4CC(CC(C4)C2)C3)Cc2c1ccc(O)c2O = 13%
• c1ccc(-c2oc3ncnc(NC[C@@H]4CCCO4)c3c2-c2ccccc2)cc1 = 5%

Attention now shifts to the item below.
Q: # lookup: Population Hoechst High Intensity Objects (%) of CC(C)[C@H](CO)Nc1nc(Nc2cccc(Cl)c2)c2ncn(C(C)C)c2n1
A: 23%

* * *

Exercise: state measured Population Normal (%) for each of the molecules provided.
- System: U2OS
- method: Multiplex assay against U2OS
- Format: toxicity, cell-based
- test_context: human, 48 h, 1 µM, compound concentration 1 uM, replicate 1
One number for each entry, in %.

// solved cases for Population Normal (%) follow
* Cl.NC[C@@H]1O[C@H](C23CC4CC(CC(C4)C2)C3)Cc2c1ccc(O)c2O | 93
* CCCCCNC(=N)N/N=C/c1c[nH]c2ccc(OC)cc12.O=C(O)/C=C\C(=O)O [TEGASEROD MALEATE] | 96
* CC(Cc1ccc(O)c(O)c1)C(C)Cc1ccc(O)c(O)c1 (configuration not stated) [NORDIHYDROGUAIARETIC ACID] | 97
* C=CC(=O)Nc1cc(-n2c(=O)ccc3cnc4ccc(-c5ccc(NS(C)(=O)=O)cc5)cc4c32)ccc1C | 97
* CCCc1cc(C)[nH]c(=O)c1CNC(=O)c1cc(-c2ccc(N3CCN(C(C)C)CC3)nc2)cc2c1cnn2C(C)C | 89
* Cc1c(P(=S)(c2ccccc2)c2ccccc2)n2ccccc2[n+]1C/C=C/c1ccccc1.[Br-] | 94

Q: Dear colleague, I am looking for the recorded Population Normal (%) of the following molecule: CN1C(=O)[C@@H](NC(=O)c2cc3ccccc3[nH]2)N=C(c2ccccc2)c2ccccc21 [DEVAZEPIDE]
A: 96
